The reported numbers originate from paper PMC7961521.

Tested on: 3G (DNA, G4) TTAGGGTTAGGGTTAGGGTTACCTAGGCATCCTCCAGTTCCTGGAGTCAGTG
Assay: fluorescent dye displacement
Details: 100 mM KCl; 10 mM Tris-HCl pH 7.2; B6,5 1 µM displaced; 0.5 µM nucleic acid
REPORTED_PROPERTY: binding

COMPOUND	RESULT
O=C(c1cc(Cc2n[nH]c(=O)c3ccccc23)ccc1F)N1CCN(C(=O)C2CC2)CC1	weak
CN1CCC[C@H]1CCNC(=O)c1cn2c3c(c(N4CCC(c5cnccn5)C4)c(F)cc3c1=O)Oc1cc3ccccc3cc1-2 (stereo partly shown)	yes
C[n+]1ccc(-c2c3nc(c(-c4cc[n+](C)cc4)c4ccc([nH]4)c(-c4cc[n+](C)cc4)c4nc(c(-c5cc[n+](C)cc5)c5ccc2[nH]5)C=C4)C=C3)cc1	yes
O=C(/C=C/C=C/c1ccc2c(c1)OCO2)N1CCCCC1	weak
